Values were extracted from ChEMBL document CHEMBL1140762.

Assay: Lipophilicity, log P of the compound
Type: physicochemical
Conditions: octanol/water
Assign labels as follows, please: True for logP below 2; False for logP equal to or exceeding 2.

In: Please state whether logP is below 2 for O=c1c2ccccc2[nH]c2ccc(Cl)cc12
Out: False

In: Would you kindly verify if logP of O=c1c2ccccc2n(CCCN2CCCC2)c2ccc(Cl)cc12 is strictly less than 2?
Out: True

In: Strictly below 2: is that where logP of O=c1c2ccccc2n(CCCCCl)c2ccc(Cl)cc12 sits?
Out: True

In: Check if logP falls below 2 for O=c1c2ccccc2n(CCCN(CCO)CCO)c2ccc(Cl)cc12 .
Out: True

In: Would you kindly verify if logP of O=c1c2ccccc2n(CCCN2CCOCC2)c2ccc(Cl)cc12 is strictly less than 2?
Out: True

###

Answer each item with its documented Activity.
Target: ATP-dependent translocase ABCB1 (Homo sapiens)
Sequence (P08183 whole entry): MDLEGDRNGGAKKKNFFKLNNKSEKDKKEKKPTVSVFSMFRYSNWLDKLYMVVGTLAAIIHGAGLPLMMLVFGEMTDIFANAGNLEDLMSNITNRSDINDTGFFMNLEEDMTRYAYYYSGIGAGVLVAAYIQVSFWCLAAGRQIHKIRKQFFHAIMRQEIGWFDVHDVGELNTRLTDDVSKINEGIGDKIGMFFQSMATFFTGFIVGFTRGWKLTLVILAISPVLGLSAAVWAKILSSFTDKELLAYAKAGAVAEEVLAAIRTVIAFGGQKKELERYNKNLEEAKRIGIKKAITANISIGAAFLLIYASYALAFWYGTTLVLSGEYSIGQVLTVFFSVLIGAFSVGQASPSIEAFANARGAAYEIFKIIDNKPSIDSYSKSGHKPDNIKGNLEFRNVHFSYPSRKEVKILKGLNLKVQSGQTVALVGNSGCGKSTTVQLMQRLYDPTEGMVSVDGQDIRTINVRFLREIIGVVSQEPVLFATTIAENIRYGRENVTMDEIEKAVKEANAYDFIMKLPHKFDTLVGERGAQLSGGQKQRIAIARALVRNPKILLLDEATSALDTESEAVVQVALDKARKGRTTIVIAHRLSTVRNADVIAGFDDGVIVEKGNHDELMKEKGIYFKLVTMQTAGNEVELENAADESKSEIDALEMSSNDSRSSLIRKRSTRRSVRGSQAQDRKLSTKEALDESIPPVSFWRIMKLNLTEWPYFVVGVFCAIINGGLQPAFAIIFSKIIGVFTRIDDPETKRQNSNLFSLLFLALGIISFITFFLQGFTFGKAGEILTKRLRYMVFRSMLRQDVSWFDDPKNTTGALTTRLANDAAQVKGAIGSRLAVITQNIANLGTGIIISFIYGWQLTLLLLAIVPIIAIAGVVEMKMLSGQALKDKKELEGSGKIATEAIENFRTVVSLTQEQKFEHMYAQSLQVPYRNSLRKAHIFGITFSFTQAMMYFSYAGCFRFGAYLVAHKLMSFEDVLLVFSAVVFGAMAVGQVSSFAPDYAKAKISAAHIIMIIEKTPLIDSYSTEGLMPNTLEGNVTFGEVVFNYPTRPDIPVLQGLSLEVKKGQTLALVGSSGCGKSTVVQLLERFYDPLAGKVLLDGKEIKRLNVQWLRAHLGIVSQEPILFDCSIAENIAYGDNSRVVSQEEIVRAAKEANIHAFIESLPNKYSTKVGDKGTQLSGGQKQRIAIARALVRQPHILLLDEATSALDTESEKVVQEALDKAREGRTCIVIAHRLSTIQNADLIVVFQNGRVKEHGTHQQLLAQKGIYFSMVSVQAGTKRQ
Assay: Inhibition of P-glycoprotein in MDR human KBChR-8-5 cells assessed as retention of [3H]VLB after 2 hrs
Format: cell-based
Design: concentration or dose not given beside the values
Number only, in %; omit the unit.

In: Fill in: Activity of O=c1c2ccccc2n(CCCCCl)c2ccc(Cl)cc12 is ___
Out: 60.5

In: What value of Activity has been reported for the following molecule? O=c1c2ccccc2n(CCCCN2CCCCC2)c2ccc(Cl)cc12
Out: 77

In: Can you share its Activity? I mean this molecule: O=c1c2ccccc2n(CCCN2CCCC2)c2ccc(Cl)cc12
Out: 56

In: If you can, please state the reported Activity value of O=c1c2ccccc2n(CCCCN2CCN(CCO)CC2)c2ccc(Cl)cc12 .
Out: 80.5

In: Would you mind telling me what Activity value was observed for O=c1c2ccccc2n(CCCN2CCCCC2)c2ccc(Cl)cc12 ?
Out: 54.5

In: Requested read-out: Activity. Entry: CCN(CC)CCCCn1c2ccccc2c(=O)c2cc(Cl)ccc21
Out: 77.2

In: Activity lookup needed for O=c1c2ccccc2n(CCCCN(CCO)CCO)c2ccc(Cl)cc12 , thanks.
Out: 74

In: Entry under review: CN1CCN(CCCn2c3ccccc3c(=O)c3cc(Cl)ccc32)CC1 . Reported Activity?
Out: 51

In: Item O=c1c2ccccc2n(CCCCl)c2ccc(Cl)cc12 has what recorded Activity?
Out: 40

In: Bench note: what Activity did O=c1c2ccccc2n(CCCCN2CCCC2)c2ccc(Cl)cc12 show?
Out: 79

In: GET /values?readout=Activity&item= CCN(CC)CCCn1c2ccccc2c(=O)c2cc(Cl)ccc21
Out: 47

###

Target: ATP-dependent translocase ABCB1 (Homo sapiens)
Test: Inhibition of P-glycoprotein in MDR human KBChR-8-5 cells assessed as uptake of vinblastin relative to control
Type: cell-based
Parameters: concentration or dose not given beside the values
Kindly state Activity for each of the entries shown.

In: Endpoint output: Activity of O=c1c2ccccc2n(CCCCCl)c2ccc(Cl)cc12 . Value?
Out: 982%

In: Please give the measured Activity for this molecule: CN1CCN(CCCCn2c3ccccc3c(=O)c3cc(Cl)ccc32)CC1
Out: 1420%

In: Entry under review: O=c1c2ccccc2n(CCCCN2CCCC2)c2ccc(Cl)cc12 . Reported Activity?
Out: 1010%

In: Endpoint output: Activity of O=c1c2ccccc2[nH]c2ccc(Cl)cc12 . Value?
Out: 715%

In: Would you mind telling me what Activity value was observed for CCN(CC)CCCn1c2ccccc2c(=O)c2cc(Cl)ccc21 ?
Out: 948%

In: Could you tell me which Activity is on file for O=c1c2ccccc2n(CCCCl)c2ccc(Cl)cc12 ?
Out: 880%

In: Return reported Activity; argument: CN1CCN(CCCn2c3ccccc3c(=O)c3cc(Cl)ccc32)CC1
Out: 1010%

In: Any idea what its Activity is? The molecule is O=c1c2ccccc2n(CCCN2CCOCC2)c2ccc(Cl)cc12
Out: 1372%

In: What value of Activity has been recorded for this entry: O=c1c2ccccc2n(CCCCN(CCO)CCO)c2ccc(Cl)cc12
Out: 1219%

In: Recorded Activity for O=c1c2ccccc2n(CCCN2CCN(CCO)CC2)c2ccc(Cl)cc12 , please?
Out: 1252%

In: I have this molecule here, CCN(CC)CCCCn1c2ccccc2c(=O)c2cc(Cl)ccc21 , and I need its recorded Activity.
Out: 1356%

In: Record request: Activity value, item O=c1c2ccccc2n(CCCCN2CCOCC2)c2ccc(Cl)cc12
Out: 1690%
